tested on: TAOK2; conditions: concentration: 1 μM, replicates: in singlicate; n = 1;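 note: KINOMEscan kinase panel screen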
measured attribute: %Inh (%)
Answers are plain numbers, in %.

For every item below, please supply its %Inh.
1. Cn1ccc2ncnc(Oc3ccc(Nc4nc5ccccc5[nH]4)cc3)c21
2. CS(=O)(=O)c1ccc(-c2c(-c3ncn[nH]3)sc(N3CCOCC3)c2C#N)cc1
3. COc1ccc2nc(-c3cccc(C)n3)nc(Nc3ccncc3)c2c1
4. Cc1cccc(-c2nc(Nc3cccc(C(N)=O)c3)c3ccccc3n2)n1
5. Cc1csc(-c2nc(Nc3ccncc3)c3ccccc3n2)n1
6. Cc1ccc(C(=O)Nc2ccc(Nc3ccnc4cc(-c5ccccn5)ccc34)cc2O)cc1.Cl

1: 0; 2: 0; 3: 0; 4: 30; 5: 16; 6: 0

Consider the following items and state reported %Inh for each.
1. CCCc1ccc(S(=O)(=O)NC2CCN(c3ccnc(Nc4ccc(F)cc4)n3)C2)cc1 (stereo not shown)
2. COC(=O)c1c(-c2ccccc2)c2cc(C(=O)O)ccc2c(=O)n1Cc1ccccc1
3. O=c1cc(N2CCOCC2)nc2n(Cc3cccc(Cl)c3Cl)ccn12
4. CN1C(=O)C(Nc2ccc(Cl)c(C(=O)O)c2)=C(c2ccc(Cl)cc2)C1=O

1: 0; 2: 20; 3: 0; 4: 5
